B1: CPEB3 Ribozyme (parent)
chain: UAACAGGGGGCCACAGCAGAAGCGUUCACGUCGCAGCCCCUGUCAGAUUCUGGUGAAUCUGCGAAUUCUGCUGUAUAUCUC

variants of: B1; assay: self-cleavage, relative activity (ratio to wild type); higher = more cleavage; in vitro, sequencing
self-cleavage vs 0.2: at or above is Y, below is N.

Reference set (3 entries):
AAACAGGGGGCCACAGCAGAAGCGUUAACGUCGCAGCCCCUGUCAGAUUCUGGUGAAUCUGCGAAUUCUGCUGUAUAUCUC ... Y
UAACCGGGGGCCACAGCAGAAGCGUCCACGUCGCAGCCCCUGUCAGAUUCUGGUGAAUCUGCGAAUUCUGCUGUAUAUCUC ... Y
UAACAGGGGGCCACAGCAGAAGCGUUCACGUCGCAGCCCCUGUCAGAUUCUGGUGAAUCUGCUAAUUCUGCUGCAUAUCUC ... Y

QUERY: Record "UAACAGGGGGCCACAGCAGAAGCGUUCACUUCGCGGCCCCUGUCAGAUUCUGGUGAAUCUGCGAAUUCUGCUGUAUAUCUC" ; criterion: self-cleavage no lower than 0.2. Met?
RESULT: N

QUERY: Now the variant "UAACAGGGGGCCACAGCAGAAGCGUUCUCGUCGCAGCCACUGUCAGAUUCUGGUGAAUCUGCGAAUUCUGCUGUAUAUCUC"
RESULT: N

QUERY: Now the variant "UAUCAGGGGGCCACAGCAGAAGCGUUCACGUCGCAGCCCCUGUCAGAUUCUGGUGAAUUUGCGAAUUCUGCUGUAUAUCUC"
RESULT: Y

QUERY: Now the variant "UAACAGGGGGCCACAGCAGAAGCGUUCACGUCGCAGCCCCUGUCAGAUUCUGGUGAACCUGCGAAUCCUGCUGUAUAUCUC"
RESULT: Y

QUERY: Now the variant "UAACAGGGGCCCACAGCAGAAGCGUUCACGUCGCAGCCCCUGUCAGAUUCUGGAGAAUCUGCGAAUUCUGCUGUAUAUCUC"
RESULT: Y

QUERY: Now the variant "UAACAGGGGGCCACAGGAGAAGCGUUCACGUCGCAGCCCCUGUCAGGUUCUGGUGAAUCUGCGAAUUCUGCUGUAUAUCUC"
RESULT: Y

QUERY: Now the variant "UAACAGGGGGGCACAGCAGAAGCGUUCACGUCGCUGCCCCUGUCAGAUUCUGGUGAAUCUGCGAAUUCUGCUGUAUAUCUC"
RESULT: N

QUERY: Now the variant "UAACAGGGGGCCACAGAAGAAGCGGUCACGUCGCAGCCCCUGUCAGAUUCUGGUGAAUCUGCGAAUUCUGCUGUAUAUCUC"
RESULT: Y

QUERY: Now the variant "UAACUGGGGGCCACAGCAGAAGCGUUCACGUCGCAGCCCCUGUCAGAUUCUGGUGAAUCUGCAAAUUCUGCUGUAUAUCUC"
RESULT: Y

QUERY: Now the variant "UAACAGGGGGCCACGGCAGAAGCGUUCACGUCGCAGCCCCUGUCAGAUUCUGGUGAAUCUGCGAAUUCUGCUGUAUGUCUC"
RESULT: Y
